Max inhibition (%) (10 µg/mL) by entry:
biological target: T1, His-tagged human IGF1R protein (ACRO Biosystems Inc., Cat #: IGR-H5229) (human, UniProt P08069 31-932); assay: blocking ELISA on coated hIGF1R-His; blocked ligand: biotinylated human IGF-I
T1 construct: Bought protein; also called hIGF1R-His; not shown: His tag
T1 sequence (P08069 31-932): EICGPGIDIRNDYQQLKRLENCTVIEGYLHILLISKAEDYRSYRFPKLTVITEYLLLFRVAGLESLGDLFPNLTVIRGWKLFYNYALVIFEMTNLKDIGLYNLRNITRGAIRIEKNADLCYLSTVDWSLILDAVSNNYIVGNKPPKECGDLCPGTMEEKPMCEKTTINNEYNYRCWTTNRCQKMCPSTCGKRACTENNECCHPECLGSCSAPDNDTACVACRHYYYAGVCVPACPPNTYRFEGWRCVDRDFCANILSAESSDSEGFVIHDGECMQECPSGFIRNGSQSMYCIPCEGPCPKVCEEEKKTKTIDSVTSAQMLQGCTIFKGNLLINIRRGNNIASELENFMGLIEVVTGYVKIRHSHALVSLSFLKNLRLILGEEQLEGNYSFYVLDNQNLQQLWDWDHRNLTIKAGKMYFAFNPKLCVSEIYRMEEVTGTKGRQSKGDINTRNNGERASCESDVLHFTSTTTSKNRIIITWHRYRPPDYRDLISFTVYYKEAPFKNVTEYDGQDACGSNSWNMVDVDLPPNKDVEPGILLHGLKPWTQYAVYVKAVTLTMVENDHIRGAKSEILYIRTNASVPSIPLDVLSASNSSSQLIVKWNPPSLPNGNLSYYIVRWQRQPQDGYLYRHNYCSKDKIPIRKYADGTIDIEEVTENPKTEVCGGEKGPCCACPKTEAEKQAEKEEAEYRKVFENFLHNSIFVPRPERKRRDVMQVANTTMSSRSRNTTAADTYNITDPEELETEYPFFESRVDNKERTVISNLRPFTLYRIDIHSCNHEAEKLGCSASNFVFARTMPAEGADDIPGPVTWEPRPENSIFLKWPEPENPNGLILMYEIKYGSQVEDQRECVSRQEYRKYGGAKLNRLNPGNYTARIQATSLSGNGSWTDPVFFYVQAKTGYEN
Write down the numeric answer in % and omit the unit.

{"binder": "anti-IGF1R antibody 10G1 (antibody, human IgG1, V domains shown) VH: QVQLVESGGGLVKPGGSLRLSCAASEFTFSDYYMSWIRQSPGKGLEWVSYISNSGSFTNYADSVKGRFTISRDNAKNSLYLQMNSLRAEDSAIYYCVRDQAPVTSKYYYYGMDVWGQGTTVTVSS VL: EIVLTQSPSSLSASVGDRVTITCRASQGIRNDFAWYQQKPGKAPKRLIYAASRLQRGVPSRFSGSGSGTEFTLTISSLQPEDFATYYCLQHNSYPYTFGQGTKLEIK", "Max inhibition (%) (10 µg/mL)": 43}
{"binder": "anti-IGF1R antibody 12D1 (antibody, human IgG1, V domains shown) VH: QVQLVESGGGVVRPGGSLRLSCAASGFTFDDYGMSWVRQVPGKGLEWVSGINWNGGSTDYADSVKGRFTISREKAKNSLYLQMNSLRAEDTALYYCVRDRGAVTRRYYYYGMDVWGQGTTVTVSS VL: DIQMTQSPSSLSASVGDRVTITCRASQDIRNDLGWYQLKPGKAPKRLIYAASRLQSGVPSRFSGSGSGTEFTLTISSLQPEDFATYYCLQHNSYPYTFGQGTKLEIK", "Max inhibition (%) (10 µg/mL)": 55}
{"binder": "anti-IGF1R antibody 12A4 (antibody, V domains shown) VH: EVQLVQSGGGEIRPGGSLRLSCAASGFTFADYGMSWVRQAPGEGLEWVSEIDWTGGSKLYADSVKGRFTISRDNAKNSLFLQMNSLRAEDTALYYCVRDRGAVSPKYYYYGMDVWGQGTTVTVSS VL: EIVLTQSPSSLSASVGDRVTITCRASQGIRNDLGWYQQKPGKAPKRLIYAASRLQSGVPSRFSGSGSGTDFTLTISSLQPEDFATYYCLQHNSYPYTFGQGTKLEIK", "Max inhibition (%) (10 µg/mL)": 50}

With those in mind, consider the next binder.
Qu. Tell us which Max inhibition (%) (10 µg/mL) value is on record for anti-IGF1R antibody 10D1 (antibody, human IgG1, V domains shown) VH: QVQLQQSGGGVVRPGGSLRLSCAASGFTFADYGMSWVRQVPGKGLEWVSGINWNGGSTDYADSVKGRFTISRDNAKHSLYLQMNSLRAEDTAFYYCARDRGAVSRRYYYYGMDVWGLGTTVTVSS VL: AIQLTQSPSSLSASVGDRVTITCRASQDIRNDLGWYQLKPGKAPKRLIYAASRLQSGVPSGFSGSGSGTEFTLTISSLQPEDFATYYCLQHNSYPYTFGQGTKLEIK
Ans. 47
